Values were extracted from patent US9353116B2.

Assay target: WT c-Src (Gallus gallus (Chicken), UniProt P00523)
Protocol summary: In vitro kinase assay, WT c-Src
Assay type: biochemical
Measurement conditions: 10 min preincubation with inhibitor prior to addition of ATP; read-out: IC50 against WT c-Src
pIC50: −log10 of the molar value.
I'd appreciate it if you could supply pIC50 values for the items below.

>>> result("C=CS(=O)(=O)Nc1cccc(-c2nn(C(C)C)c3ncncc23)c1")
"≤ 5.30"

Could you now look at the following compound, please?
Which pIC50 value is on record for C=CC(=O)Nc1cccc(-c2nn(C(C)C)c3ncncc23)c1 ?
≤ 5.30

---

Record form. Attribute: pIC50. Fill in for each entry.
Assay target: T338C c-Src (Gallus gallus (Chicken), UniProt P00523, T338C)
Protocol summary: In vitro kinase assay, T338C c-Src (c-Src-ES1)
Format: biochemical
Measurement conditions: inhibitor preincubated with Src ten minutes prior to addition of ATP; read-out: T338C c-Src IC50
One number for each entry, as −log10 of the molar value.

>>> measured_number("C=CS(=O)(=O)Nc1cccc(-c2nn(C(C)C)c3ncnc(N)c23)c1")
6.95
>>> measured_number("C=CC(=O)Nc1cccc(Nc2ncnc3cc(OC)c(OC)cc23)c1")
5.78
>>> measured_number("C=CC(=O)Nc1cccc(Cc2nn(C(C)C)c3ncnc(N)c23)c1")
5.56

Please examine the following record next.
Param item = C=CS(=O)(=O)Nc1cccc(Cc2nn(C)c3ncnc(N)c23)c1 ; retrieve measured pIC50.
5.50
